- Reported Conditions: Table 1; capacity factor extrapolated to 0% methanol; average of three to five determinations; pH 7.4
Reported log k′w values are given for each entry in this list.
Write the value as a bare number.

# Compound, log k′w
data = [
    ("Nc1nc(N)c2nc(-c3ccccc3)c(N)nc2n1", 0.71),
    ("Cc1nc2n(c(=O)c1CCN1CCC(c3noc4cc(F)ccc34)CC1)CCCC2", 1.23),
    ("COc1ccc([C@@H]2Sc3ccccc3N(CCN(C)C)C(=O)[C@@H]2OC(C)=O)cc1", 1.59),
    ("C=CCc1ccccc1OCC(O)CNC(C)C (stereo not drawn)", 0.37),
    ("CN(C)CCCN1c2ccccc2CCc2ccccc21", 1.56),
]

Could you now consider this next compound?
Input line: Consider the compound O=C(CCCN1CCC(O)(c2ccc(Cl)cc2)CC1)c1ccc(F)cc1 and give its measured log k′w.
Output line: 2.00

meta.source: patent US20020161528A1
